Assay: qHTS assay to identify small molecule antagonists of the peroxisome proliferator-activated receptor gamma (PPARg) signaling pathway - cell viability counter screen (AID 743194); further: on the % scale 0 is the no-effect control and ±100 the full control effect; nearly all actives have a fitted effect of over 55% in size
Conditions: PPARg-bla HEK293H viability, CellTiter-Glo luminescence, 17 h, co-treated with 50 nM rosiglitazone; series mostly up to 62.6 µM
Inconclusive results are not listed. Calls of active or inactive are those of the source. The call rests on the fitted dose curve; in most records, active means well fitted cell-killing curve with a large enough effect in the repeat runs; inconclusive means weak or mixed curves, or effect the other way; inactive means no such curve, though single readings can be large or run the other way.
reported_property: activity change, negative = cytotoxicity

The following molecules have reported results that may help.
### Prompt Requested read-out: activity change, negative = cytotoxicity. Entry: O=C(O)CN(CCOCCOCCN(CC(=O)O)CC(=O)O)CC(=O)O
### Response 11.4% [at 0.55 µM] (inactive)

### Prompt Requested read-out: activity change, negative = cytotoxicity. Entry: Cc1[nH]c(=O)c(C#N)cc1-c1ccc2nccn2c1
### Response inactive

### Prompt Requested read-out: activity change, negative = cytotoxicity. Entry: N=C(N)c1ccc2cc(OC(=O)c3ccc(N=C(N)N)cc3)ccc2c1
### Response inactive

### Prompt Requested read-out: activity change, negative = cytotoxicity. Entry: CCOC(=O)C(=O)OCC
### Response inactive

### Prompt Requested read-out: activity change, negative = cytotoxicity. Entry: OC(CCN1CCCCC1)(c1ccccc1)C1CC2C=CC1C2 (stereo unspecified)
### Response inactive

### Prompt Requested read-out: activity change, negative = cytotoxicity. Entry: CCCCCCCCCCCCCC=O
### Response 14.4% [at 5.95 µM] (inactive)

***
### Prompt Requested read-out: activity change, negative = cytotoxicity. Entry: Cc1ccc(Cl)cc1Cl
### Response inactive

### Prompt Requested read-out: activity change, negative = cytotoxicity. Entry: c1cnc(N2CCN(Cc3ccc4c(c3)OCO4)CC2)nc1
### Response inactive

### Prompt Requested read-out: activity change, negative = cytotoxicity. Entry: CN1CCN(c2cc3c(cc2F)c(=O)c(C(=O)O)cn3-c2ccc(F)cc2)CC1
### Response inactive

### Prompt Requested read-out: activity change, negative = cytotoxicity. Entry: N#Cc1ccc(C2CCCc3cncn32)cc1 (stereo unspecified)
### Response inactive

### Prompt Requested read-out: activity change, negative = cytotoxicity. Entry: N[C@H](C(=O)O)c1ccc(O)cc1
### Response inactive

### Prompt Requested read-out: activity change, negative = cytotoxicity. Entry: CCO[Si](CCC1CCC2OC2C1)(OCC)OCC (stereo unspecified)
### Response inactive

### Prompt Requested read-out: activity change, negative = cytotoxicity. Entry: C=CCS(=O)(=O)O
### Response inactive

### Prompt Requested read-out: activity change, negative = cytotoxicity. Entry: CC(C)NCCCC1(C(N)=O)c2ccccc2-c2ccccc21
### Response inactive

### Prompt Requested read-out: activity change, negative = cytotoxicity. Entry: CC(NC(CCc1ccccc1)C(=O)O)C(=O)N1C(=O)N(C)CC1C(=O)O (stereo unspecified)
### Response inactive

### Prompt Requested read-out: activity change, negative = cytotoxicity. Entry: CCCN1CCCC[C@H]1C(=O)Nc1c(C)cccc1C
### Response inactive

### Prompt Requested read-out: activity change, negative = cytotoxicity. Entry: O=C1NC(=O)[C@@]2(CCOc3ccc(F)cc32)N1
### Response inactive

### Prompt Requested read-out: activity change, negative = cytotoxicity. Entry: CC(=O)Nc1c(I)cc(I)c(C(=O)O)c1I
### Response inactive

### Prompt Requested read-out: activity change, negative = cytotoxicity. Entry: C[C@](N)(Cc1ccc(O)cc1)C(=O)O
### Response 4.13% [at 5.95 µM] (inactive)

### Prompt Requested read-out: activity change, negative = cytotoxicity. Entry: Cc1cnc(NS(=O)(=O)c2ccc(N)cc2)nc1
### Response inactive

### Prompt Requested read-out: activity change, negative = cytotoxicity. Entry: COC(=O)NN
### Response inactive
